- target system: Acetylcholinesterase (Homo sapiens)
- protocol: Acetylcholinesterase (AChE) small molecule antagonists: fluorescence cell-based qHTS assay (AID 1347398); note: nearly all actives have a fitted effect of over 50% in size
- measurement parameters: SH-SY5Y cells; AChE activity; series mostly up to 115 µM
Inconclusive results are not listed. Activity calls are given as the source filed them. Calls come from the whole dose curve.
Outcomes you can answer with include only these: T = active, F = inactive

Please state the recorded outcome for this compound: CC(C)c1cccc(C(C)C)c1NC(=O)NS(=O)(=O)c1cc(C(C)(C)O)co1
F

Lab log entry: CCN(CC)C(=O)N(CC)CC — outcome as called in the assay?
F

Please state the recorded outcome for this compound: CC1(C)[C@@H](O)CC[C@]2(C)[C@H]3C(=O)C=C4[C@@H]5C[C@@](C)(C(=O)O)CC[C@]5(C)CC[C@@]4(C)[C@]3(C)CC[C@@H]12
F

Field: outcome | Entry: CSC(=O)c1cccc2nnsc12
T

How was CCCc1ccc(OC)cc1 classified in this test?
F

# outcome recorded in this test, key = O=C1CC2(CCCC2)CC(=O)N1
F

Any idea what this test logged for Cc1cc(N)c(S(=O)(=O)O)cc1Cl ?
F

Hi, sorry to bother you, what did the test record for Cn1c(N)c(N=O)c(=O)n(C)c1=O ?
F

I would be grateful if you could indicate the recorded call for CC(C)=CCC/C(C)=C/C#N .
F

Please state the recorded outcome for this compound: CO[Si](OC)(c1ccccc1)c1ccccc1
F

Outcome logged for CC(=O)OCC(=O)[C@@]1(O)CC[C@H]2[C@@H]3CCC4=CC(=O)C=C[C@]4(C)[C@@]3(F)[C@@H](O)C[C@@]21C in this assay:
F

Just curious, what result did C1=CCC(c2ccccc2)CC1 (stereo not given) get here?
F

Record lookup: outcome of this test for Cc1c(C(=O)NCCO)[n+](=O)c2ccccc2n1[O-] ?
F

Field: outcome | Entry: c1ccc(C[P+](c2ccccc2)(c2ccccc2)c2ccccc2)cc1
T

Assay result, entry CCCCCCCCCOC(=O)c1ccccc1C(=O)OCCCCCCCCC — outcome?
F

Each compound tested received a call. Report the one for CC1(C)CC(N)CC(C)(C)N1 .
F

Could you please tell me the result logged for C1CCC2(CCCCO2)OC1 in this assay?
F

Please state the recorded outcome for this compound: CN(C1CCCCC1)S(=O)(=O)c1ccccc1N
F

What is the recorded call for this compound in the test? COc1ccc(S(=O)(=O)N2c3ccc(Cl)cc3[C@@](O)(c3ccccc3Cl)[C@H]2C(=O)N2CCC[C@@H]2C(N)=O)cc1OC
F

Could you please tell me the result logged for O=C(O)c1ccccc1-c1ccc(C(F)(F)F)cc1 in this assay?
F

Which result was noted for this compound in the test: CCC(OCCCOC)OC(C)=O (stereo not given)
F

Which outcome was entered for the compound CCCCCCCC/C=C\CCCCCCCC(=O)N(C)CC(=O)O in this test?
F

Write down the call the test reported for this compound. Item: CCC(=O)OC/C=C(\C)CCC=C(C)C
F

Outcome? CCOC(=O)COC(=O)c1cc(Oc2ccc(C(F)(F)F)cc2Cl)ccc1[N+](=O)[O-]
F

Recorded test call requested for CCCCCCC1(C)CCC(=O)O1 (stereo not given)
F

====

- target system: Acetylcholinesterase (Homo sapiens)
- protocol: Acetylcholinesterase (AChE) small molecule antagonists: colormetric cell-based qHTS assay (AID 1347395); note: nearly all actives have a fitted effect of over 30% in size; note: potency is the fitted concentration of half-maximal effect
- measurement parameters: SH-SY5Y cells AChE activity, colorimetric (Ellman); series mostly up to 115 µM
- Description: National Center for Advancing Translational Sciences [NCATS] Division of Preclinical Innovation [DPI] U.S. Environmental Protection Agency [EPA] National Institutes of Environmental Health Sciences [NIEHS] National Toxicology Program [NTP] U.S. Food and Drug Administration [FDA] Acetylcholinesterase (AChE) is the primary cholinesterase in the body that hydrolyzes a key neurotransmitter, acetylcholine. Inhibition of AChE activity can lead to neurotoxicity. […]
Inconclusive results are not listed. Active and inactive are the calls of the source. The call rests on the fitted dose curve.
endpoint: Potency

O=C1Cc2cc(CCN3CCN(c4nsc5ccccc45)CC3)c(Cl)cc2N1 | inactive
C#C[C@]1(OC(C)=O)CC[C@H]2[C@@H]3CCC4=C/C(=N/O)CC[C@@H]4[C@H]3CC[C@@]21CC | inactive
CN(C)c1ccc(N=Nc2ccccc2C(=O)O)cc1 | inactive
C[n+]1cc2c3c(ccc2c2ccc4cc5c(cc4c21)OCO5)OCO3 | 10.7 µM (active)
CC1=C(CC(=O)O)c2cc(F)ccc2/C1=C\c1ccc(S(C)(=O)=O)cc1 | inactive
CCN(CC)C(=O)Nc1ccc(OCC(O)CNC(C)(C)C)c(C(C)=O)c1 (stereo not given) | inactive
OC[C@@H](O)[C@@H](O)CO | inactive
Oc1ccc(Nc2ccccc2)cc1 | inactive
CC(O)CCCCn1c(=O)c2c(ncn2C)n(C)c1=O (stereo not given) | inactive

Look at this molecule and give its reported Potency. O=C(Nc1ccc([N+](=O)[O-])cc1)Nc1ccc([N+](=O)[O-])cc1 (tested in a mixture with another compound)
inactive

====

- target system: Acetylcholinesterase (Homo sapiens) (UniProt P22303)
- Sequence (P22303 whole entry, looked up): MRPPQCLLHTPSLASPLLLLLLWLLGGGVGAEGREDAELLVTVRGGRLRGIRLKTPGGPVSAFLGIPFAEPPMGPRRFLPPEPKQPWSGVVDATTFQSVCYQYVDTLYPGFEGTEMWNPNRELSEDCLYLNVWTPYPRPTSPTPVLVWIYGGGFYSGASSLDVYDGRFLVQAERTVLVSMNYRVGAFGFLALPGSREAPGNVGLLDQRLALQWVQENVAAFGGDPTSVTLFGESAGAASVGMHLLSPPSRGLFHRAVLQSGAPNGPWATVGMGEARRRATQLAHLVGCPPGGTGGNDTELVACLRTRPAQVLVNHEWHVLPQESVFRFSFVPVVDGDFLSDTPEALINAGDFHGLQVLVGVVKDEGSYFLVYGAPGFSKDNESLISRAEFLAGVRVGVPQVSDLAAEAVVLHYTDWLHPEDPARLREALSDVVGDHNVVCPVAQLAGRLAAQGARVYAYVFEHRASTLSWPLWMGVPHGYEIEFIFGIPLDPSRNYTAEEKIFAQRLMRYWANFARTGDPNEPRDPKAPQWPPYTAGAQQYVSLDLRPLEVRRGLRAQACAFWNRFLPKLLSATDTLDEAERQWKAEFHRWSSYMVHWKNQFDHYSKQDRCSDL
- protocol: Acetylcholinesterase (AChE) small molecule antagonists: colormetric cell-based qHTS assay (AID 1347395); note: nearly all actives have a fitted effect of over 30% in size
- measurement parameters: SH-SY5Y cells AChE activity, colorimetric (Ellman); series mostly up to 115 µM
Inconclusive results are not listed. Calls of active or inactive are those of the source. Calls follow the shape of the full dose curve.
Hello, when you answer, please use one of the following outcomes: 1 = active, 0 = inactive

Which result was noted for this molecule in the test: CC[C@H](C)[C@H](N)C(=O)O
0

Hello, I am checking results. What call was entered for O=C1CC2(CCCC2)CC(=O)N1 ?
0

Per the assay record, what outcome was assigned to O=C(N[C@@H](c1ccccc1)[C@@H]1CCCCN1)c1cccc(C(F)(F)F)c1Cl ?
0

Hi team, can someone confirm the assay call for O=C(C1CCCCC1)N1CC(=O)N2CCCc3ccccc3C2C1 (configuration not stated) ?
0

Check the results log: what was the call for Cc1ccsc1/C=C/C1=NCCCN1C ?
1

What did the test return for CCOC(=O)c1nc(C(Cl)(Cl)Cl)n(-c2ccc(Cl)cc2Cl)n1 ?
0

Name the outcome recorded for CC(C)COC(=O)COc1cc(Cl)c(Cl)cc1Cl in the assay.
0

# outcome recorded in this test, key = O=[Si]=O
0

Please let me know the test result on file for CC(=O)Nc1ccccc1C .
0

Which result was noted for this molecule in the test: Nc1cc(C(F)(F)F)ccc1S
0

What did the test return for CNC(=O)c1cnn(-c2nc(N)c3ncn([C@@H]4O[C@H](CO)[C@@H](O)[C@H]4O)c3n2)c1 ?
0

Which outcome was assigned to CCCCC(=O)O[C@]1(C(=O)CO)[C@H](C)C[C@H]2[C@@H]3CCC4=CC(=O)C=C[C@]4(C)[C@@]3(F)[C@@H](O)C[C@@]21C in this test?
0

Recorded call for CCCCCCCCCCCCCCCCCCOS(=O)(=O)O ?
0

How was Cc1ccccc1N1C(=O)c2cc(S(N)(=O)=O)c(Cl)cc2NC1C (configuration not stated) classified in this test?
0

Write down the call the test reported for this molecule. Item: O=C(O)/C=C/c1ccccc1
0

What call does the record list for CCC(C)C1CCCCC1=O (configuration not stated) ?
0

Could you please tell me the result logged for O=C1CCCc2c1cc1ccc3cccc4ccc2c1c34 in this assay?
0

Record request — test call for c1csc(SSc2cccs2)c1
0

Please state the recorded outcome for this molecule: C1=CCC2CC=CC2C1 (configuration not stated)
0

Name the outcome recorded for CCC1Nc2cc(Cl)c(S(N)(=O)=O)cc2S(=O)(=O)N1 (configuration not stated) in the assay.
0

Which result was noted for this molecule in the test: CCCCCCCCCCCCCCOS(=O)(=O)O
0

So what was the verdict on CCCCCCCCCOC(C)=O in this test?
0

What was the test verdict on CSc1ccc(Oc2ccc(S(N)(=O)=O)cc2CN(C)C)cc1C ?
0

Hi team, can someone confirm the assay call for CCCCC(CC)C(=O)OC(C)C (configuration not stated) ?
0

Entry CCOC(=O)Nc1ccc(NCc2ccc(F)cc2)nc1N : call = ?
0

GET /call?item= CC1(C)C(=O)C(C)(C)C1=O returns the recorded outcome of this test.
0

Fill in: this test's call for CC(=O)c1ccc2c(c1)CCCC2 is ___
0

====

- protocol: qHTS assay to identify small molecule antagonists of the thyroid receptor (TR) signaling pathway - cell viability counter screen (AID 743064); note: nearly all actives have a fitted effect of over 50% in size; note: potency is the fitted concentration of half-maximal effect
- measurement parameters: GH3.TRE-Luc viability, CellTiter-Fluor, 24 h; series mostly up to 70.3 µM
Inconclusive results are not listed. The source made the active and inactive calls. Calls follow the shape of the dose curve; as a rule, active = well fitted cell-killing curve with a large enough effect in the repeat runs; inconclusive = weak or mixed curves, or effect the other way; inactive = no such curve, though single readings can be large or run the other way.
endpoint: Potency

Answered examples (6):
O=C(O)c1ccccc1[O-].O=C(O)c1ccccc1[O-].[Zn+2] | inactive
C#C[C@]1(OC(=O)CCCCCC)CC[C@H]2[C@@H]3CCC4=CC(=O)CC[C@@H]4[C@H]3CC[C@@]21C | 11.9 µM (active)
Clc1ccc([C@@H]2C[C@H]3CC[C@@H]2N3)cn1 | inactive
CN1C2CCC1CC(OC(c1ccccc1)c1ccc(Cl)cc1)C2 (stereo not drawn) | 4.73 µM (active)
CCC(=O)O[C@H]1[C@@H](N2CCCCC2)C[C@H]2[C@@H]3CC[C@H]4C[C@H](OC(C)=O)[C@@H](N5CCCCC5)C[C@]4(C)[C@H]3CC[C@@]21C | inactive
Cc1ccc2c(c1)[C@]13CCCC[C@@H]1[C@H](C2)N(C)CC3 | inactive

Give the measured Potency of C[C@]12CC[C@H]3[C@@H](CCC4=CC(=O)CC[C@@]43C)[C@@H]1CC[C@@H]2OC(=O)CCc1ccccc1 .
inactive

Please report the recorded Potency for CC(=O)O[C@H]1C[C@H](O[C@H]2[C@@H](O)C[C@H](O[C@H]3[C@@H](O)C[C@H](OC4CC[C@@]5(C)C(CC[C@@H]6[C@@H]5CC[C@]5(C)[C@@H](C7=CC(=O)OC7)[C@@H](O)C[C@]65O)C4)O[C@@H]3C)O[C@@H]2C)O[C@H](C)[C@H]1O[C@@H]1O[C@H](CO)[C@@H](O)[C@H](O)[C@H]1O (stereo partly drawn) .
inactive
